- Tested on: Plasmodium falciparum
- testMethodNotes: Antimalarial activity against multidrug resistant Plasmodium falciparum W2 infected in human erythrocytes assessed as inhibition of parasite proliferation after 96 hrs by SYBR Green I fluorescence based assay
- Format: functional, organism-based
- experimentalSetup: W2, 96 h
observable: IC50 (nM)

> print(dat)
                                   molecule  unitabbreviation  valuemeasured
1  C[C@H]1[C@H](OC(=O)CCC(=O)O)O[C@@H]2O[C@@]3(C)CC[C@H]4[C@H](C)CC[C@@H]1[C@@]24OO3 [ARTESUNATE]                nM           6.77
2  CCCCCCCCCCOc1cc2c(=O)c(C(=O)OCC)cn(C(=O)N3CCCCC3)c2cc1OCC                nM           28.2
3  CCCCCCCCCCOc1cc2c(=O)c(C(=O)NCCOCCO)c[nH]c2cc1OCC                nM           18.5
4  CCCCCCCCCCOc1cc2c(=O)c(C(=O)OCC)cn(C(C)=O)c2cc1OCC                nM            8.5
5  CCCCCCCCCCOc1cc2c(O)c(C(=O)OCC)cnc2cc1OCC [DECOQUINATE]                nM           15.4
6  CCCCCCCCCCOc1cc2c(=O)c(C(=O)OCC)cn(C(=O)CC)c2cc1OCC                nM           11.5
7  CCCCCCCCCCOc1cc2c(=O)c(C(=O)NCc3ccc(F)cc3)c[nH]c2cc1OCC                nM            8.6
8  CO[C@H]1O[C@@H]2O[C@@]3(C)CC[C@H]4[C@H](C)CC[C@@H]([C@H]1C)[C@@]24OO3                nM            4.5

====

- testMethodNotes: Selectivity index, ratio of IC50 for human WI38 cells to IC50 chloroquine-sensitive asexual Plasmodium falciparum NF54 infected in human erythrocytes
- Format: toxicity, cell-based, WI-38
- experimentalSetup: read-out: Ratio IC50
Item-by-item account of selectivity ratio
observable: selectivity ratio

> print(dat)
                                   compound  valuemeasured
1  CCCCCCCCCCOc1cc2c(=O)c(C(=O)NCc3ccc(F)cc3)c[nH]c2cc1OCC         > 3020
2  CCCCCCCCCCOc1cc2c(=O)c(C(=O)OCC)cn(C(=O)N3CCCCC3)c2cc1OCC            465
3  CCCCCCCCCCOc1cc2c(O)c(C(=O)OCC)cnc2cc1OCC [DECOQUINATE]         > 3760
4  CCCCCCCCCCOc1cc2c(=O)c(C(=O)OCC)cn(C(C)=O)c2cc1OCC        > 20400
5  C[C@H]1[C@H](OC(=O)CCC(=O)O)O[C@@H]2O[C@@]3(C)CC[C@H]4[C@H](C)CC[C@@H]1[C@@]24OO3 [ARTESUNATE]        > 12700
6  CCCCCCCCCCOc1cc2c(=O)c(C(=O)OCC)cn(C(=O)CC)c2cc1OCC         > 6490
7  CCCCCCCCCCOc1cc2c(=O)c(C(=O)NCCOCCO)c[nH]c2cc1OCC           1090
